- measurement-target: GST-tagged truncated human mutant G2019S LRRK2 (Homo sapiens (Human), UniProt Q5S007, G2019S)
- Sequence (Q5S007 970-2527 G2019S): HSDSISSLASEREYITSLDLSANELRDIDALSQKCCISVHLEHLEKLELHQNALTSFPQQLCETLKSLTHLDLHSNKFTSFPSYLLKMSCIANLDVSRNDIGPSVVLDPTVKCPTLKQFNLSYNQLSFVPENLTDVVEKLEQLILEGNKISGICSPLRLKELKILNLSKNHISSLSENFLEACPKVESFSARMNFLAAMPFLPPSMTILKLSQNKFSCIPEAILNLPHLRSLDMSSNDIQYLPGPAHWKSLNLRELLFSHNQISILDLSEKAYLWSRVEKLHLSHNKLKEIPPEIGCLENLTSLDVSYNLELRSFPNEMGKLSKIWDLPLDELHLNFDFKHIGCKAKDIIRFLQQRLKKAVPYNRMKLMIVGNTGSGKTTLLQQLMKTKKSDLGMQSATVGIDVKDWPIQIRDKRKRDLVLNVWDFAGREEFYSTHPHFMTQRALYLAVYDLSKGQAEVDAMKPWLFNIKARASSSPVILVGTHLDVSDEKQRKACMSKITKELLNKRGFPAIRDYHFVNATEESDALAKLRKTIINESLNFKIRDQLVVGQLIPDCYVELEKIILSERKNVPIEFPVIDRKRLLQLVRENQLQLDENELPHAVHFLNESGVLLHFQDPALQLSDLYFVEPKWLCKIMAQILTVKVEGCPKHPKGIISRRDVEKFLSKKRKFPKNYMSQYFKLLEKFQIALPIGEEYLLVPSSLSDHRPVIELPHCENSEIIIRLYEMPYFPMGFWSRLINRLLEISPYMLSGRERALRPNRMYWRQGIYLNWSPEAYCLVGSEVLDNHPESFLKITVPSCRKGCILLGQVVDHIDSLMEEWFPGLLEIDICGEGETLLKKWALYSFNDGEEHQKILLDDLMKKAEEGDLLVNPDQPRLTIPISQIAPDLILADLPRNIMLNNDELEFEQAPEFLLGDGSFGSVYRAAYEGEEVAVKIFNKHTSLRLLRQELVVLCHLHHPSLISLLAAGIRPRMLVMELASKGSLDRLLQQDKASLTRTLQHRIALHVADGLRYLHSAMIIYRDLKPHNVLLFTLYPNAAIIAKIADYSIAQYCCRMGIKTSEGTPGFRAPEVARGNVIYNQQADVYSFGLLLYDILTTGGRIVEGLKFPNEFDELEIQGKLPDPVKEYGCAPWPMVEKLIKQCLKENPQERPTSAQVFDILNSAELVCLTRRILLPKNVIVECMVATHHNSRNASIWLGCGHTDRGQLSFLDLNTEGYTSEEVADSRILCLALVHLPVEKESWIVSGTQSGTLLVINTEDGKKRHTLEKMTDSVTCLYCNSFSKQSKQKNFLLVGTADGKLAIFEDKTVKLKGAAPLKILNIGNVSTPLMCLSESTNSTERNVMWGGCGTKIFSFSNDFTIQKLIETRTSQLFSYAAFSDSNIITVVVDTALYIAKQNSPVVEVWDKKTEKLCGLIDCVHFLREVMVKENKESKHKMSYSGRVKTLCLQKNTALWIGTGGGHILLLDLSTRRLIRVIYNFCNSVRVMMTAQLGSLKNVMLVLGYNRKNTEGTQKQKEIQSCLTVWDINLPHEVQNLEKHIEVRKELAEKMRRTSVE
- assay-overview: LRRK2 G2019S Km ATP LanthaScreen Assay
- condition-label: 134 μM ATP (Km ATP); fluorescein-labeled LRRKtide substrate; mean IC50 values
readout-label: pIC50
Notebook: values listed as pIC50 are -log10 of the concentration (mol/L).

I am curious: what pIC50 value has been reported for COCc1nc(N2C[C@@H](C)[C@@](C)(O)[C@@H](C)C2)cc(-n2ncc3ccc([C@]4(C#N)CC45CC5)cc32)n1 [Example 4.10] ? 9.22

Continue with N#C[C@@]1(c2ccc3cnn(-c4cc(N5CC(O)C6(CC6)C5)ncn4)c3c2)CC12CC2 (single isomer, unassigned) [Example 3.11-4] 9.22

Let us now turn to COc1nc(N2CC3(C(C)(C)O)CC2C3)cc(-n2ncc3ccc(C4(C#N)CC45CC5)cc32)n1 (single isomer, unassigned) [Example 2.5-2] 9.10

###

- measurement-target: GST-tagged truncated human mutant G2019S LRRK2 (Homo sapiens (Human), UniProt Q5S007, G2019S)
- assay-overview: LRRK2 G2019S Km ATP LanthaScreen Assay
- condition-label: 134 μM ATP (Km ATP); fluorescein-labeled LRRKtide substrate; mean IC50 values
Please provide measured IC50 for the entries that follow.
Write down the numeric answer in nM and omit the unit.

Which IC50 is listed for Cc1cc(-n2ncc3ccc(C4(C#N)CC45CC5)cc32)cc(N2CC3(C(C)(C)O)CC2C3)n1 (single isomer, unassigned) [Example 7.3-1] ? 54.2

Then CN1CCOC2(C1)CN(c1cc(-n3ncc4ccc([C@]5(C#N)CC56CC6)cc43)ncn1)C2 ? 0.6

Consider next the compound C[C@@H]1CN(c2cc(-n3ncc4ccc([C@@]5(C#N)CC56CC6)cc43)ncn2)CCN1C1CCOC1 (single isomer, unassigned) [Example 3.7-1] in the same way. 8

Further, for CC(C)(O)C12CC(C1)N(c1cc(-n3ncc4ccc(C5(C#N)CC56CC6)cc43)cnn1)C2 (single isomer, unassigned) [Example 10.3-1] ? 35.2

Also need Cc1nc(N2CC3(C2)CN(C2COC2)C3)cc(-n2ncc3ccc([C@]4(C#N)CC45CC5)cc32)n1 , thanks. 454

Lookup CC(C)(O)[C@@H]1CCN(c2cc(-n3ncc4ccc(C5(C#N)CC56CC6)cc43)cnn2)C1 (single isomer, unassigned) [Example 10.4-1] 18.7

Input CS(=O)(=O)N1CCN(c2cc(-n3ncc4ccc([C@]5(C#N)CC56CC6)cc43)ccn2)CC1 2.8

Record: N#CC1(c2ccc3cnn(-c4cc(N5CC6(CCOC6)C5)ncn4)c3c2)CC12CC2 (stereo not shown) 0.9

Now give it for CS(=O)(=O)N1CCN(c2cc(-n3ncc4ccc([C@]5(C#N)CC56CC6)cc43)ncn2)CC1 too. 1.3

And the next one, CC1CN(c2cc(-n3ncc4ccc([C@]5(C#N)CC56CC6)cc43)ncn2)CC1C(C)(C)O (single isomer, unassigned) [Example 3.6-2] ? 0.6

Likewise for CC(C)(O)C1CN(c2cc(-n3ncc4ccc([C@]5(C#N)CC56CC6)cc43)ncn2)C1 ? 0.6

Try this compound next: C[C@H]1CN(c2cc(-n3ncc4ccc([C@@]5(C#N)CC56CC6)cc43)ncn2)CCN1C1CCOC1 (single isomer, unassigned) [Example 3.8-1] 1.6

Repeat with C[C@H]1CN(c2cc(-n3ncc4ccc([C@@]5(C#N)CC56CC6)cc43)ncn2)CCN1C1CCOC1 (single isomer, unassigned) [Example 3.8-3] 1.3

Next: Cc1nc(N2CC3(CN(CC(F)(F)F)C3)C2)cc(-n2ncc3cnc(C4(C#N)CC45CC5)cc32)n1 (single isomer, unassigned) 2.1

Now consider CC1C(C(C)(C)O)CCN1c1cc(-n2ncc3ccc([C@@]4(C#N)CC45CC5)cc32)ncn1 (single isomer, unassigned) [Example 3.5-3] . 1.9

Next entry: Cc1nc(N2CC3(CN(CC(F)(F)F)C3)C2)cc(-n2ncc3ccc(C4(C#N)CC45CC5)cc32)n1 (stereo not shown) 28.4

Follow-up item: CC(C)(O)[C@@H]1CCN(c2cc(-n3ncc4ccc([C@]5(C#N)CC56CC6)cc43)ncn2)C1 0.9

Another: C[C@@H]1CN(c2cc(-n3ncc4ccc([C@]5(C#N)CC56CC6)cc43)ncn2)C[C@H](C)N1C1COC1 0.6

Item: CC(C)(O)C1CN(c2cc(-n3ncc4ccc([C@]5(C#N)CC56CC6)cc43)ncn2)CCO1 (single isomer, unassigned) [Example 4.3-2] 0.6

Note, next up: C[C@@H]1CN(c2cc(-n3ncc4ccc([C@]5(C#N)CC56CC6)cc43)ncn2)CCN1C1CCOC1 (single isomer, unassigned) [Example 3.7-2] 1.7

Now consider CC1CN(c2cc(-n3ncc4ccc([C@@]5(C#N)CC56CC6)cc43)ncn2)CC1C(C)(C)O (single isomer, unassigned) [Example 3.6-3] . 9.8

Can you check CC(C)(O)C12CC(C1)N(c1cc(-n3ncc4cc(F)c(C5(C#N)CC56CC6)cc43)ncn1)C2 (single isomer, unassigned) [Example 5.5-1] next? 3.9

And CC1C(C(C)(C)O)CCN1c1cc(-n2ncc3ccc([C@]4(C#N)CC45CC5)cc32)ncn1 (single isomer, unassigned) [Example 3.5-6] ? 4.9

And then COCc1nc(C)cc(-n2ncc3ccc([C@]4(C#N)CC45CC5)cc32)n1 , what is it? 10.3

Next up: COc1nc(N2CC3(C(C)(C)O)CC2C3)cc(-n2ncc3ccc(C4(C#N)CC45CC5)cc32)n1 (single isomer, unassigned) [Example 2.5-1] 0.9

###

- measurement-target: GST-tagged truncated human mutant G2019S LRRK2 (Homo sapiens (Human), UniProt Q5S007, G2019S)
- assay-overview: LRRK2 G2019S Km ATP LanthaScreen Assay
- condition-label: 134 μM ATP (Km ATP); fluorescein-labeled LRRKtide substrate; mean IC50 values
readout-label: log10 of IC50 (log10 of the value in nM)
In our notation, the value equals log10 of IC50 in nM.

Could you share which log10 of IC50 value was measured for N#C[C@@]1(c2ccc3cnn(-c4cc(C5CCN(C6COC6)CC5)ncn4)c3c2)CC12CC2 ? 1.27

Next compound: CNc1nc(N2CC3(C(C)(C)O)CC2C3)cc(-n2ncc3ccc(C4(C#N)CC45CC5)cc32)n1 (single isomer, unassigned) [Example 2.7-2] -0.22

Now consider CCc1nc(C)cc(-n2ncc3ccc([C@]4(C#N)CC45CC5)cc32)n1 . 0.51

How about this compound: COC1(C(C)(C)O)CCN(c2cc(-n3ncc4ccc([C@]5(C#N)CC56CC6)cc43)ncn2)C1 (single isomer, unassigned) [Example 3.10-4] -0.05

Then this compound: COC1(C(C)(C)O)CCN(c2cc(-n3ncc4ccc([C@@]5(C#N)CC56CC6)cc43)ncn2)C1 (single isomer, unassigned) [Example 3.10-3] 0.49

Entry to check: CC(C)(O)C12CC(C1)N(c1cc(-n3ncc4cc(F)c(C5(C#N)CC56CC6)cc43)ncn1)C2 (single isomer, unassigned) [Example 5.5-2] 1.50

CNc1nc(C)cc(-n2ncc3ccc([C@]4(C#N)CC45CC5)cc32)n1 , same question. 0.54

Similarly, Cc1cc(-n2ncc3ccc([C@]4(C#N)CC45CC5)cc32)ncn1 ? 0.87

Same question for CC1(O)CC2(CN(c3cc(-n4ncc5ccc([C@]6(C#N)CC67CC7)cc54)ncn3)C2)C1 please. 0.18

Also COCc1nc(N2C[C@@H](C)N(C3COC3)[C@@H](C)C2)cc(-n2ncc3ccc([C@]4(C#N)CC45CC5)cc32)n1 ? -0.05

Cc1nc(N2CCN3CCOC[C@@H]3C2)cc(-n2ncc3ccc([C@]4(C#N)CC45CC5)cc32)n1 ? -0.22

Then what about the compound CC(C)(O)[C@@H]1CCN(c2cc(-n3ncc4cnc(C5(C#N)CC56CC6)cc43)ccn2)C1 (single isomer, unassigned) [Example 6.6-2] ? 0.53

And then CC(C)(O)C12CC(C1)N(c1cc(-n3ncc4cnc(C5(C#N)CC56CC6)cc43)ncn1)C2 (single isomer, unassigned) [Example 5.2-1] , what is it? 0.96

What do we get for CC1C(C(C)(C)O)CCN1c1cc(-n2ncc3ccc([C@@]4(C#N)CC45CC5)cc32)ncn1 (single isomer, unassigned) [Example 3.5-7] ? 0.71

###

So I've got a bunch of compounds here, and I need their IC50 values.
- measurement-target: GST-tagged truncated human mutant G2019S LRRK2 (Homo sapiens (Human), UniProt Q5S007, G2019S)
- assay-overview: LRRK2 G2019S Km ATP LanthaScreen Assay
- Type: biochemical
- condition-label: 134 μM ATP (Km ATP); fluorescein-labeled LRRKtide substrate; mean IC50 values
Just the number in nM, nothing appended.

Would you kindly share the measured IC50 for CC(C)(O)C12CC(C1)N(c1cc(-n3ncc4c(F)cc(C5(C#N)CC56CC6)cc43)ncn1)C2 (single isomer, unassigned) [Example 4.15-1] ? 18.4

Request: C[C@@H]1CN(c2cc(-n3ncc4ccc([C@]5(C#N)CC56CC6)cc43)ncn2)C[C@H](C)[C@]1(C)O 1.1

Also COCc1nc(N2C[C@@H](C)[C@@](C)(O)[C@@H](C)C2)cc(-n2ncc3ccc([C@]4(C#N)CC45CC5)cc32)n1 [Example 3.3] , if possible. 1

Now consider CC(C)(O)C12CC(C1)N(c1cc(-n3ncc4ccc(C5(C#N)CC56CC6)cc43)ccn1)C2 (single isomer, unassigned) . 1.2

Ok, now Cc1nc(N2CCN(C3(C)COC3)CC2)cc(-n2ncc3ccc([C@]4(C#N)CC45CC5)cc32)n1 0.6

Do the same for CC(C)(O)C12CC(C1)N(c1cc(-n3ncc4ccc([C@]5(C#N)CC56CC6)cc43)nc(N3CCC3)n1)C2 please 9.8

Okay, and CC(C)(O)[C@@H]1CCN(c2cc(-n3ncc4ccc(C5(C#N)CC56CC6)cc43)cnn2)C1 (single isomer, unassigned) [Example 10.4-2] ? 2.7

Query N#C[C@@]1(c2ccc3cnn(-c4cc(N5CCOC(CO)C5)ncn4)c3c2)CC12CC2 (stereo in doubt) next 0.6

# repeat for CC(C)(O)C12CC(C1)N(c1cc(-n3ncc4ccc([C@@]5(C#N)CC56CC6)cc43)ccn1)C2 5.3

Also, C[C@H]1CN(c2cc(-n3ncc4ccc(C5(C#N)CC56CC6)cc43)ncn2)CCN1C1COC1 (single isomer, unassigned) please. 0.6

Input COC1(C(C)(C)O)CCN(c2cc(-n3ncc4ccc([C@]5(C#N)CC56CC6)cc43)ncn2)C1 (single isomer, unassigned) [Example 3.10-2] 2.1

Same for C[C@@H]1CN(c2cc(-n3ncc4ccc([C@@]5(C#N)CC56CC6)cc43)ncn2)CCN1C1CCOC1 (single isomer, unassigned) [Example 3.7-3] 9

Query CC(C)(O)C12CC(C1)N(c1cc(-n3ncc4ccc([C@]5(C#N)CC56CC6)cc43)cc(F)n1)C2 next 15

And what about the compound Cc1nc(N2CC3(C(C)(C)O)CC2C3)cc(-n2ncc3cc(F)c(C4(C#N)CC45CC5)cc32)n1 (single isomer, unassigned) [Example 5.6-2] ? 1.3
